target: Tyrosine-protein kinase receptor UFO (Homo sapiens) (UniProt P30530); settings: at 0.1 µM;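 note: values are mean percent inhibition of AXL from the GSK PKIS screen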
Sequence (P30530 whole entry): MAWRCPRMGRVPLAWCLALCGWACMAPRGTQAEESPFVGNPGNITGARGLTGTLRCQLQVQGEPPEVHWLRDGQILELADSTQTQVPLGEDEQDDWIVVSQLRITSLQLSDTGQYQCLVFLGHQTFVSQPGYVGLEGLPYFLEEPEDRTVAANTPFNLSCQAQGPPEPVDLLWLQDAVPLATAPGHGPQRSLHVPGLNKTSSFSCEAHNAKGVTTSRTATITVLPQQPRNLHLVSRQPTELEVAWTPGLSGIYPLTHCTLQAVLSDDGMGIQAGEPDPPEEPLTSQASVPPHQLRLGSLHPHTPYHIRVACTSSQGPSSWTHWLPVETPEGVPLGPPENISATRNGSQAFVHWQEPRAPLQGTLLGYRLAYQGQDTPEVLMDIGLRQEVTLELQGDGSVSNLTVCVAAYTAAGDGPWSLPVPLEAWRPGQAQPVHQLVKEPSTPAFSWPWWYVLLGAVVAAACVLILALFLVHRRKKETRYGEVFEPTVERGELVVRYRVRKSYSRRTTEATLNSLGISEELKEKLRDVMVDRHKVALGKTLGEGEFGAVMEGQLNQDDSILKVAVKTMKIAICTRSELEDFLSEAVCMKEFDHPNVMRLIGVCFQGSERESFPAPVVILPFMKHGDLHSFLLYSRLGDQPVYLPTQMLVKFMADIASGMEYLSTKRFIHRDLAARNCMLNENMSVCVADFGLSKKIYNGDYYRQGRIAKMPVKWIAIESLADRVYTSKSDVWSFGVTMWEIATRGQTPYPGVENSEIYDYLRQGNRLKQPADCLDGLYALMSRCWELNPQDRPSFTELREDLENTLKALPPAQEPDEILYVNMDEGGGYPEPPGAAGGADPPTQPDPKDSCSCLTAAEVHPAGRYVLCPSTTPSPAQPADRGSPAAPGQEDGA
measurement.label: inhibition (%)
Answers are plain numbers, in %.

CCn1c(-c2nonc2N)nc2cncc(C(=O)N3CC[C@H](N)C3)c21; -5.66

For every item below, please supply its inhibition.
1. CCCN1CCC(Oc2cc(Nc3nc(Nc4cccc(F)c4C(N)=O)c4cc[nH]c4n3)c(OC)cc2Cl)CC1
2. COc1ccc(-c2ccncc2)cc1C(N)=O
3. COc1cc2ncn(-c3cc(OCc4ccccc4Cl)c(C(N)=O)s3)c2cc1OC

Response:
5.22
-7.91
0.24

---

Assignment: determine reported inhibition for the given compounds.
target: Protein kinase C theta type (Homo sapiens); conditions: at 1 µM;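 note: each value is a mean inhibition of PKC-theta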
Answers are plain numbers, in %.

CNC(=O)c1cncc(/C=C/c2c(Cl)cccc2Cl)c1; 1.94
CC1=C(C(=O)Nc2ccc3[nH]ncc3c2)C(c2ccc(F)cc2)NC(=O)N1 (stereo not given); 3.15

For every item below, please supply its inhibition.
1. COc1ccc2cc(-c3c(-c4ccncc4)nc(-c4ccc([S+](C)[O-])cc4)n3C)ccc2c1 (stereo not given)
2. COC(=O)Nc1nc2cc(Oc3cccc(NC(=O)Nc4cc(C(F)(F)F)ccc4F)c3)ccc2[nH]1
3. CCn1c(-c2nonc2N)nc2c(N3CCCC3)nccc21

Response:
0.27
-0.91
0.44

For every item below, please supply its inhibition.
1. O=C1NC(=O)C(c2cccc(Cl)c2)=C1Nc1ccc(O)c(Cl)c1
2. CCn1c(-c2nonc2N)nc2cncc(C(=O)N3CC[C@H](N)C3)c21

Response:
4.79
23.8

---

molecular target: Protein kinase C eta type (Homo sapiens) (UniProt P24723); conditions: at 0.1 µM;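 note: values are the mean percent inhibition of PKC-eta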
Sequence (P24723 whole entry): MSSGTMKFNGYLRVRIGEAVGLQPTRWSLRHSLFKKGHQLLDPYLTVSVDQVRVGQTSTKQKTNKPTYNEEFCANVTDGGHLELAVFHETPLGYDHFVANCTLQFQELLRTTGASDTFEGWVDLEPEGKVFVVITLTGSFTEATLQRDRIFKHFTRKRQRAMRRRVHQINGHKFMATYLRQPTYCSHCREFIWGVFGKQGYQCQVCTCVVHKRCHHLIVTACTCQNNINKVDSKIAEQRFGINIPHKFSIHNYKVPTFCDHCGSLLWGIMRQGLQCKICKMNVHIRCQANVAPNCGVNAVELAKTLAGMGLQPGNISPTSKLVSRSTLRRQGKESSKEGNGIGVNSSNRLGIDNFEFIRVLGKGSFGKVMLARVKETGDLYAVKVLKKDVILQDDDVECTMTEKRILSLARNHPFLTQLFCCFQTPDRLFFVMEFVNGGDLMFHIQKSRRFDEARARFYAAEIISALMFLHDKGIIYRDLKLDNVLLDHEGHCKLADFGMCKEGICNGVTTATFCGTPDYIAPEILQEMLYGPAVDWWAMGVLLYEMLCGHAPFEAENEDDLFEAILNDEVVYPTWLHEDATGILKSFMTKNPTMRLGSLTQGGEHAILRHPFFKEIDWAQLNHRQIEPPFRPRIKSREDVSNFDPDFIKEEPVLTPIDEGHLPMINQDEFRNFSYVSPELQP
measurement.label: inhibition (%)
Numbers only, in %.

Worked cases, inhibition given:
COc1cc(C=NNc2ncnc3c2cnn3-c2ccccc2)ccc1O; 3.68
CC(=O)Nc1cccc(C#Cc2cncnc2Nc2ccc(OCc3cccc(F)c3)c(Cl)c2)n1; 0.65
CCN1CCC(CC(=O)Nc2n[nH]c3nc(-c4cccs4)c(Br)cc23)CC1; -3.78
COc1cccc(-n2ncc3c(N/N=C/c4cccc(F)c4)ncnc32)c1; 0.06
NS(=O)(=O)c1cccc(-c2ccc3c(NC(=O)C4CC4)n[nH]c3c2)c1; -2.13
CN(C)c1cc2c(Nc3ccc4nc(Cc5ccccc5)[nH]c4c3)ncnc2cn1; 3.25

For every item below, please supply its inhibition.
1. Nc1nc(-c2ccc3c(c2)C(=Cc2cc(Br)c(O)c(Br)c2)C(=O)N3)cs1
2. CS(=O)(=O)CCNCc1ccc(-c2ccc3ncnc(Nc4ccc(OCc5cccc(F)c5)c(C(F)(F)F)c4)c3c2)o1
3. Fc1cccc(COc2ccc(Nc3ncnc4cc(-c5ccc[nH]5)sc34)cc2Cl)c1
4. CCn1c(-c2nonc2N)nc2c(N3CCCC3)nccc21

Response:
1. -1.62
2. 4.51
3. 2.87
4. 1.82

---

target: Tyrosine-protein kinase JAK1 (Homo sapiens); details: at 0.1 µM
Description: GSK_PKIS: JAK1 mean inhibition at 0.1 uM [Nanosyn]
Assignment: determine reported inhibition for the given molecules.
Numbers only, in %.

Worked cases, inhibition given:
Cc1cc(O)cc(C)c1/C=C/c1cncc(-c2nn[nH]n2)c1; 1.7
COc1cc(C)c(NC(=O)CN(C)C)cc1Nc1nc(Nc2cccc(F)c2C(N)=O)c2cc[nH]c2n1; 2.55
CCN1CCC(CC(=O)Nc2n[nH]c3nc(-c4cccs4)c(Br)cc23)CC1; -7.81
COc1ccc(-c2nn3ncccc3c2-c2ccnc(Nc3ccc(Cl)c(C(F)(F)F)c3)n2)cc1; 1.77
NCc1ccc(-c2nc(-c3ccc(Cl)c(O)c3)c(-c3ccncc3)[nH]2)cc1; -0.11

For every item below, please supply its inhibition.
1. Nc1nc(-c2ccccn2)c(-c2ccc3ncccc3n2)s1
2. N#Cc1c(NC(=O)c2cccc3ccccc23)sc2c1CCCC2
3. CCn1c(-c2nonc2N)nc2c(C#CC(C)(C)O)nc(CN3CCCC3)cc21
4. CCn1c(-c2nonc2N)nc2cncc(C(=O)N3CC[C@H](N)C3)c21
5. CS(=O)(=O)Nc1ccc(N/C=C2\C(=O)Nc3ccccc32)cc1
6. NC(=O)c1ccc(-c2nc(-c3ccccn3)c(-c3ccc4c(c3)OCO4)[nH]2)cc1
7. COc1cc2c(cc1Nc1nc(N3CCc4ccccc43)c3cc[nH]c3n1)N(C(=O)CN(C)C)CC2
8. O=C1NC(=O)C(c2cccc(Cl)c2)=C1Nc1ccc(O)c(Cl)c1

Response:
1. 0.52
2. 3.98
3. 1.82
4. -1.1
5. 0.26
6. 3.36
7. -0.01
8. 2.54

For every item below, please supply its inhibition.
1. COc1cc2ncn(-c3cc(OCc4ccccc4C(F)(F)F)c(C(N)=O)s3)c2cc1OC
2. CN(C)c1cc2c(Nc3ccc4nc(Cc5ccccc5)[nH]c4c3)ncnc2cn1
3. CN1CCC(C(=O)Nc2n[nH]c3nnc(-c4ccccc4)cc23)CC1
4. COc1ccc(COc2ccc(Cc3cnc(N)nc3N)cc2OC)cc1
5. CC1=C(C(=O)Nc2ccc3[nH]ncc3c2)C(c2ccc(Cl)c(Cl)c2)CC(=O)N1 (stereo not given)
6. CS(=O)(=O)CCN(CC#N)Cc1ccc(-c2ccc3ncnc(Nc4ccc(OCc5cccc(F)c5)c(Cl)c4)c3c2)o1
7. CC1=C(C(=O)Nc2ccc3[nH]ncc3c2)C(c2ccc(F)cc2)NC(=O)N1 (stereo not given)

Response:
1.72
5.67
4.13
3.77
5.41
0.62
14.4

---

molecular target: Dual specificity mitogen-activated protein kinase kinase 1 (Homo sapiens) (UniProt Q02750); details: at 0.1 µM;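 note: reported value is a mean percent inhibition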
Sequence (Q02750 whole entry): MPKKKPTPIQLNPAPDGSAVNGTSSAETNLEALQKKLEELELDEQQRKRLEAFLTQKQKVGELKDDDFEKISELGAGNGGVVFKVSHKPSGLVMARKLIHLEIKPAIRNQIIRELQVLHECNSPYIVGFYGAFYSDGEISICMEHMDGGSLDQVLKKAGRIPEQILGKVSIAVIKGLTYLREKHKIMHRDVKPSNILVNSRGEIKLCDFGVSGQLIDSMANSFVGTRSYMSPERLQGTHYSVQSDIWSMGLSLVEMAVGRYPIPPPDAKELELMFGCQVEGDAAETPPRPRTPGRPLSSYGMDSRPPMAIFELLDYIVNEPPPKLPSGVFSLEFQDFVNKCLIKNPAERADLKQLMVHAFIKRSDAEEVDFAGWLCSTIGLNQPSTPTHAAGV
Assignment: determine reported inhibition for the given compounds.
Answers are plain numbers, in %.

CS(=O)(=O)CCNCc1ccc(-c2ccc3ncnc(Nc4ccc(OCc5ccccc5)c(Cl)c4)c3c2)o1; 1.17

For every item below, please supply its inhibition.
1. O=C1NC(=O)C(c2cccc(Cl)c2)=C1Nc1ccc(O)c(Cl)c1
2. O=C(Nc1n[nH]c2nc(-c3ccco3)c(Br)cc12)C1CC1
3. CS(=O)(=O)CCNCc1nc(-c2ccc3ncnc(Nc4ccc(F)c(Cl)c4)c3c2)cs1
4. CS(=O)(=O)CCNCc1ccc(-c2ccc3ncnc(Nc4ccc(OCc5cccc(F)c5)c(C(F)(F)F)c4)c3c2)o1
5. c1cnn2ncc(-c3ccnc(Nc4ccc5c(c4)OCCO5)n3)c2c1
6. O=C1NC(=O)C(N2CCc3ccccc32)=C1c1ccc(Cl)cc1

Response:
1. 0.81
2. 3.9
3. 1.19
4. 5.38
5. 7.35
6. 5.02

For every item below, please supply its inhibition.
1. CCn1c(-c2nonc2N)nc2c(C#CC(C)(C)O)nc(OC[C@@H](N)c3ccccc3)cc21
2. CCn1c(-c2nonc2N)nc2c(C#CC(C)(C)O)nc(CN3CCCC3)cc21
3. CC(C)=Cc1cccc2c1/C(=N/Nc1ccc(S(N)(=O)=O)cc1)C(=O)N2
4. N#Cc1c(NC(=O)c2cccc3ccccc23)sc2c1CCCC2
5. CN(C)c1cc2c(Nc3ccc4nc(Cc5ccccc5)[nH]c4c3)ncnc2cn1
6. O=C1NC(=O)C(c2ccccc2Cl)=C1Nc1cccc(O)c1
7. Fc1cccc(COc2ccc(Nc3ncnc4sc(-c5cccs5)cc34)cc2Cl)c1

Response:
1. -0.93
2. 0.73
3. 0.02
4. 3.76
5. 6.17
6. 1.44
7. 2.3

For every item below, please supply its inhibition.
1. Cc1nn(C)c2cc(N(C)c3ccnc(Nc4cccc(S(N)(=O)=O)c4)n3)ccc12
2. COC(=O)Nc1nc2cc(Oc3ccc(NC(=O)Nc4cccc(C(=O)O)c4)cc3)ccc2[nH]1
3. COc1cccc(-n2ncc3c(N/N=C/c4cccc(F)c4)ncnc32)c1
4. Cc1ccc(NC(=O)c2ccnc(N3CCCC3)c2)cc1-c1ccc(C(=O)NCC2CC2)cc1
5. Nc1nc(-c2ccccn2)c(-c2ccc3ncccc3n2)s1
6. CCn1c(-c2nonc2N)nc2cnc(Oc3cccc(NC(=O)c4ccc(OCCN5CCOCC5)cc4)c3)cc21

Response:
3.83
0.36
3.46
5.95
2.95
3.5

---

biological target: Protein kinase C alpha type (Homo sapiens) (UniProt P17252); conditions: at 0.1 µM;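 note: each value is the mean percent inhibition of PKC-alpha kinase activity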
measurement.label: inhibition (%)
Numbers only, in %.

Worked cases, inhibition given:
NS(=O)(=O)c1cccc(-c2ccc3c(NC(=O)C4CC4)n[nH]c3c2)c1; -0.24
COc1cc2ncn(-c3cc(O[C@@H](C)c4ccccc4Cl)c(C(N)=O)s3)c2cc1OC; 1.75
COc1cc2ncn(-c3cc(OCc4ccccc4Cl)c(C(N)=O)s3)c2cc1OC; 0
O=C1Nc2ccc(C(=O)c3ccco3)cc2C1=Cc1cc(Cl)c(O)c(Cl)c1; 1.38

For every item below, please supply its inhibition.
1. [O-][S+]1CCN(Cc2ccc(-c3ccc4ncnc(Nc5ccc(OCc6ccccc6)c(F)c5)c4c3)o2)CC1
2. CCn1c(-c2nonc2N)nc2c(C#CC(C)(C)O)nc(OC[C@@H](N)c3ccccc3)cc21
3. Fc1cccc(COc2ccc(Nc3ncnc4sc(-c5cccs5)cc34)cc2Cl)c1
4. CC1=C(C(=O)Nc2ccc3[nH]ncc3c2)C(c2ccc3ccccc3c2)CC(=O)N1 (centres undefined)
5. O=C1NC(=O)C(c2ccccc2Cl)=C1Nc1cccc(O)c1
6. CCn1c(-c2nonc2N)nc2cnc(Oc3cccc(NC(=O)c4ccc(OCCN5CCOCC5)cc4)c3)cc21

Response:
[0.47, -2.77, -0.17, 1.26, 0.83, 3.09]
